test-target: human DLL4 ECD (human)
Sequence (chain, as listed by the source): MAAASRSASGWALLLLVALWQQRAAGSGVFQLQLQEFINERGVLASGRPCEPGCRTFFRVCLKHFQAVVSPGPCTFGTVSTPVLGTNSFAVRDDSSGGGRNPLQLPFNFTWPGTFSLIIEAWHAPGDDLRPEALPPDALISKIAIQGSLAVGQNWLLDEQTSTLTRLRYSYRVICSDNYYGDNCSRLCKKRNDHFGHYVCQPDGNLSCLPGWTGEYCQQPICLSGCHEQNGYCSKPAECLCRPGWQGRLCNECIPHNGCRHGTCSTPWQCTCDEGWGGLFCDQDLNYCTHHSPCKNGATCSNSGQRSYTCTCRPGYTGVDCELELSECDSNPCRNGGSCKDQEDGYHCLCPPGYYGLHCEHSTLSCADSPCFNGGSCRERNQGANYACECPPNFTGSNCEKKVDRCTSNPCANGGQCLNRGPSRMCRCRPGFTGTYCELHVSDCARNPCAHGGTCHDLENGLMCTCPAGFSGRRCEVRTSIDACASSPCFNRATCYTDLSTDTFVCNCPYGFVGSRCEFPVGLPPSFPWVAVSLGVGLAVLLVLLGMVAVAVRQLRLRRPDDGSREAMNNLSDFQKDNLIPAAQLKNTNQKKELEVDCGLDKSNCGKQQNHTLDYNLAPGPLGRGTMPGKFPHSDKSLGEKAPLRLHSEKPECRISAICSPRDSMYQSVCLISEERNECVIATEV
test-details: competition ELISA
reported-metric: IC50 (nM)
Give your result in nM as a bare value.

Request: Determine from records and report IC50 for h38H12.13 (antibody, V domains shown) VH: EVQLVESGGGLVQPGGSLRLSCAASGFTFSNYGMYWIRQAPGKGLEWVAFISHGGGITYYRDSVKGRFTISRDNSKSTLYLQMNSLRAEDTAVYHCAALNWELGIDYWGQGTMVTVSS VL: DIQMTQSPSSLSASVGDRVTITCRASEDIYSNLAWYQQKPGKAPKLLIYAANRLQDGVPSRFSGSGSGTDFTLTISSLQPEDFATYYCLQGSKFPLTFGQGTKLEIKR
Response: 5.29

Request: Determine from records and report IC50 for h38H12.9 (antibody, V domains shown) VH: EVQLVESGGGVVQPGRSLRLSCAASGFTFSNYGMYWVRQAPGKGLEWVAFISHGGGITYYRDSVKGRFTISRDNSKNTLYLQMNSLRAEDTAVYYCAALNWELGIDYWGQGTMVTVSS VL: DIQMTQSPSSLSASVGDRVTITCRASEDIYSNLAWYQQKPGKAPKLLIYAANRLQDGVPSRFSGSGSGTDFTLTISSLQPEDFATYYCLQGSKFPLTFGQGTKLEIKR
Response: 4.16

Request: Determine from records and report IC50 for h38H12.8 (antibody, V domains shown) VH: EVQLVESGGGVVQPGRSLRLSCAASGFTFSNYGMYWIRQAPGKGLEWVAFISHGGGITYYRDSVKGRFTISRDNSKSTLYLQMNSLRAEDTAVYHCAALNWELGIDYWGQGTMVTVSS VL: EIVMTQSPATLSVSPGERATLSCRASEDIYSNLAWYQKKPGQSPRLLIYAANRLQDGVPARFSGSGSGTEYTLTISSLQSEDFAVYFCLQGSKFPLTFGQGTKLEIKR
Response: 8.31
